The following compounds are listed with their measured Ratio Ki values.
- Organism: Homo sapiens
- Assay Details: Selectivity ratio of Ki for PI3Kalpha (unknown origin) to Ki for PI3Kgamma (unknown origin)
Response field accepts a number only; no unit should be typed.

Worked examples follow.
COc1cc(-c2ccc3c(n2)CN(c2cn[nH]c2)C3=O)cnc1OC :: 34
COc1cc(-c2ccc3c(c2)CN(c2cccc(CC#N)c2)C3=O)cnc1OC :: 40

Give its Ratio Ki value. Item: "COc1cc(-c2ccc3c(n2)C(C)(C)N(c2cnn(CC(F)(F)F)c2)C3=O)cnc1OC"
33

How about this compound: "COc1cc(-c2ccc3c(c2)CN(c2cnn(CC#N)c2)C3=O)cnc1OC"
51

How about this compound: "C#CCn1cc(N2Cc3nc(-c4cnc(OC)c(OC)c4)ccc3C2=O)cn1"
11

---

- Assay Details: Half life in iv dosed rat
- Format: ADME, organism-based
- Conditions: in vivo
Reported Endpoint: half-life (h)
Give your result in h as a bare value.

Give its half-life value. Item: "COc1cc(-c2ccc3c(n2)C(C)(C)N(c2cnn(CC(F)(F)F)c2)C3=O)cnc1OC"
6.6

---

- Assay Details: Lipophilicity, log D of the compound at pH 7.4
- Format: physicochemical
- Conditions: buffer
Reported Endpoint: logD

Give its logD value. Item: "COc1ccc(-c2ccc3c(c2)CN(c2cccc(CC#N)c2)C3=O)cc1OC"
4.1

---

- Species: Homo sapiens
- Assay Details: Selectivity ratio of Ki for PI3Kdelta (unknown origin) to Ki for PI3Kgamma (unknown origin)
Reported Endpoint: Ratio Ki
Response field accepts a number only; no unit should be typed.

Worked examples follow.
COc1ccc(-c2ccc3c(c2)CN(c2cccc(CC#N)c2)C3=O)cc1OC :: 7
COc1cc(-c2ccc3c(c2)CN(c2cccc(CC#N)c2)C3=O)cnc1OC :: 16
COc1cc(-c2ccc3c(n2)CN(c2cnn(CC(F)F)c2)C3=O)cnc1OC :: 5

Give its Ratio Ki value. Item: "C#CCn1cc(N2Cc3nc(-c4cnc(OC)c(OC)c4)ccc3C2=O)cn1"
12

---

- Tested System: Phosphatidylinositol-4,5-bisphosphate 3-kinase, catalytic subunit gamma (Rattus norvegicus, UniProt D3ZFJ0)
- Sequence (D3ZFJ0 whole entry): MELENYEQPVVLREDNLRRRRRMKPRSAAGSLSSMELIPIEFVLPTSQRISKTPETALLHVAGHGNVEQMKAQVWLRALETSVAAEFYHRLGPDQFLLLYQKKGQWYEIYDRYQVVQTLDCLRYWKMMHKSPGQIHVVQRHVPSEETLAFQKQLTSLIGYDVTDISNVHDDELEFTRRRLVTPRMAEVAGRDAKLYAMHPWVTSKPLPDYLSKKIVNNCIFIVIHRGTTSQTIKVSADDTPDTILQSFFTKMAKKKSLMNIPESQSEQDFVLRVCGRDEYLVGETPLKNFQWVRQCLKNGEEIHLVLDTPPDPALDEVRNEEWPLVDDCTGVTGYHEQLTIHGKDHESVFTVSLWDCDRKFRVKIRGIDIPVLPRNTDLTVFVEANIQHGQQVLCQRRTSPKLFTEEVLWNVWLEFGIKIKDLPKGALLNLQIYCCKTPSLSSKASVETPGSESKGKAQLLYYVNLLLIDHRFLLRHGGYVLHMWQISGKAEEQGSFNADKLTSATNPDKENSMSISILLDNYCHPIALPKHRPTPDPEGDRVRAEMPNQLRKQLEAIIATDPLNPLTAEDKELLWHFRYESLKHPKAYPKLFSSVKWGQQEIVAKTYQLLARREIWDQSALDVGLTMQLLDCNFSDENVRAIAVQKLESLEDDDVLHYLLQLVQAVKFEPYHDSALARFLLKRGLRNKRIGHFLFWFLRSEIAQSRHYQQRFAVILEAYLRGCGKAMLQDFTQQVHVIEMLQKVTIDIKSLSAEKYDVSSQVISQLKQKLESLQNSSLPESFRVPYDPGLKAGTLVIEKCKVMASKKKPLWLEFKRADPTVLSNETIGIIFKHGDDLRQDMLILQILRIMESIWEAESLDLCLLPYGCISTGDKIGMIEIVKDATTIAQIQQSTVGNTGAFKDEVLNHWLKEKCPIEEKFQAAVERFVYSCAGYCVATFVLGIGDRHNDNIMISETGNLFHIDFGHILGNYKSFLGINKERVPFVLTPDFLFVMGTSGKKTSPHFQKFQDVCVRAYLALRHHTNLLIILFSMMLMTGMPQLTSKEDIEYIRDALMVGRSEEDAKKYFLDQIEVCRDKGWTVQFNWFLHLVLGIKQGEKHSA
- Assay Details: Inhibition of PI3Kgamma in rat spleenocytes assessed as inhibition of MCP1-induced Akt phosphorylation at […] residue preincubated for 1 hr followed by MCP1 stimulation for 3 mins by FACS analysis
Reported Endpoint: IC50 (µM)
Give your result in µM as a bare value.

Give its IC50 value. Item: "COc1cc(-c2ccc3c(n2)[C@@H](C)N(c2cnn(CC(F)(F)F)c2)C3=O)cnc1OC"
0.21

---

- Assay Details: Intrinsic clearance in rat hepatocytes assessed per million cells
- Format: ADME, cell-based, Hepatocyte
- Conditions: read-out: CLH
Reported Endpoint: hepatocyte CLint (µL/min/1e6 cells)
Give your result in µL/min/1e6 cells as a bare value.

COc1ccc(-c2ccc3c(c2)CN(c2cccc(CC#N)c2)C3=O)cc1OC :: 111

Continue with the compound presented below.
Give its hepatocyte CLint value. Item: "COc1cc(-c2ccc3c(c2)CN(c2cccc(CC#N)c2)C3=O)cnc1OC"
88

---

The following molecules are listed with their measured Ki values.
- Tested System: Phosphatidylinositol 4,5-bisphosphate 3-kinase catalytic subunit gamma isoform (Homo sapiens, UniProt P48736)
- Sequence (P48736 whole entry, canonical isoform): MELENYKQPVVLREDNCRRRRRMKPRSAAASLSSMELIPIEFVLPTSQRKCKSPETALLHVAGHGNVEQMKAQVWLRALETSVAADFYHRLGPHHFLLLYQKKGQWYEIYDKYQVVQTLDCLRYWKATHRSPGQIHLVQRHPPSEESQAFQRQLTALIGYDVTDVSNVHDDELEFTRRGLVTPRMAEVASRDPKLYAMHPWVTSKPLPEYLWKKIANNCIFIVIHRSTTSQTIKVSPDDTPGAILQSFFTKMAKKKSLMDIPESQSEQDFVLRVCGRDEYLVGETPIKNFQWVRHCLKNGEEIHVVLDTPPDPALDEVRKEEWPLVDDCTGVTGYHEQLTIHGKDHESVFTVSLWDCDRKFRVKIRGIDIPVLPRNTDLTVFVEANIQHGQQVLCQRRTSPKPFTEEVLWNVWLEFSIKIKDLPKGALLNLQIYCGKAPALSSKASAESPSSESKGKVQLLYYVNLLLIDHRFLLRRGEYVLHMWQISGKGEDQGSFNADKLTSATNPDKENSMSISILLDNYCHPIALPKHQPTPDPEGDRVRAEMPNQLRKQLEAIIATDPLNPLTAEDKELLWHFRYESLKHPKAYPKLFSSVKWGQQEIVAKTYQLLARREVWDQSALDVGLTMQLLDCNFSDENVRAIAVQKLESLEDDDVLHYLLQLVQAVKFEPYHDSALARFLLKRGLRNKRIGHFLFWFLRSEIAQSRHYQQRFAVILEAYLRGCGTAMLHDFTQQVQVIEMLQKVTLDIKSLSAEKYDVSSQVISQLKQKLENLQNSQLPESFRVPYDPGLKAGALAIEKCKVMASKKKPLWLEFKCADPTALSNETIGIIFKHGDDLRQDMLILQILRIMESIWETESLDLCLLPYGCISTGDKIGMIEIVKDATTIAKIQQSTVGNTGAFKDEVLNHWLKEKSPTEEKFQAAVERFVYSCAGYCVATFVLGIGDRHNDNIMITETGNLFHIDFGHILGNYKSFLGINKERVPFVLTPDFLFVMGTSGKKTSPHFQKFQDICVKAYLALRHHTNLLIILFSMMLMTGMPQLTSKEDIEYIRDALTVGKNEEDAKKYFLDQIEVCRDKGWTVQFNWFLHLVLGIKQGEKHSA
- Assay Details: Inhibition of PI3Kgamma (unknown origin) using PIP2 as substrate after 15 mins in presence of [33P-ATP] by liquid scintillation counting method

Worked examples follow.
COc1cc(-c2ccc3c(n2)CN(c2cn[nH]c2)C3=O)cnc1OC :: 11 nM
COc1cc(-c2ccc3c(n2)CN(c2cnn(C)c2)C3=O)cnc1OC :: 60 nM

Continue with the molecule presented below.
Give its Ki value. Item: "COc1cc(-c2ccc3c(n2)CN(c2cnn(CC#N)c2)C3=O)cnc1OC"
3 to 4 nM

---

- Species: Homo sapiens
- Assay Details: Selectivity ratio of Ki for PI3Kalpha (unknown origin) to Ki for PI3Kgamma (unknown origin)
Reported Endpoint: Ratio Ki
Response field accepts a number only; no unit should be typed.

Worked examples follow.
COc1cc(-c2ccc3c(n2)CN(c2cnn(CCC#N)c2)C3=O)cnc1OC :: 11
CCn1cc(N2Cc3nc(-c4cnc(OC)c(OC)c4)ccc3C2=O)cn1 :: 25
COc1cc(-c2ccc3c(n2)CN(c2cnn(C(C)(C)C#N)c2)C3=O)cnc1OC :: 15
COc1cc(-c2ccc3c(n2)CN(c2cnn(CC(F)F)c2)C3=O)cnc1OC :: 22

Continue with the compound presented below.
Give its Ratio Ki value. Item: "COc1cc(-c2ccc3c(n2)CN(c2cnn(C)c2)C3=O)cnc1OC"
5

---

- Species on record: Homo sapiens
- Assay Details: Selectivity ratio of Ki for PI3Kbeta (unknown origin) to Ki for PI3Kgamma (unknown origin)
The following compounds are listed with their measured Ratio Ki values.
Response field accepts a number only; no unit should be typed.

Give its Ratio Ki value. Item: "COc1cc(-c2ccc3c(c2)CN(c2cnn(CC#N)c2)C3=O)cnc1OC"
27

How about this compound: "COc1cc(-c2ccc3c(n2)CN(c2cnn(CC(F)F)c2)C3=O)cnc1OC"
12

How about this compound: "COc1cc(-c2ccc3c(n2)CN(c2cnn(C(C)(C)C#N)c2)C3=O)cnc1OC"
25

---

- Species: Homo sapiens
- Assay Details: Selectivity ratio of Ki for PI3Kdelta (unknown origin) to Ki for PI3Kgamma (unknown origin)
API: label(entry) gives met if the entry's Ratio Ki is strictly smaller than 10; on equality or larger values it gives not met.

Consider the worked cases shown below.
CCn1cc(N2Cc3nc(-c4cnc(OC)c(OC)c4)ccc3C2=O)cn1 :: not met
COc1cc(-c2ccc3c(n2)CN(c2cn[nH]c2)C3=O)cnc1OC :: not met
COc1cc(-c2ccc3c(c2)CN(c2cnn(CC#N)c2)C3=O)cnc1OC :: not met
COc1cc(-c2ccc3c(n2)CN(c2cnn(CCC#N)c2)C3=O)cnc1OC :: met

Okay, next one:
Hello, I'm reviewing records and need to know if Ratio Ki of "COc1cc(-c2ccc3c(n2)CN(c2cnn(C)c2)C3=O)cnc1OC" is below 10. Could you check?
met
